The values you see were collected from patent US20230272056A1.

- TARGET OR SYSTEM: T1, human LAP-TGFB1 Fc fusion (human)
- T1 construct: also called human LAP-TGFβ1-Fc; human LAP-TGFβ-Fc isoform 1
- T1 sequence (chain, as listed by the source limits assumed): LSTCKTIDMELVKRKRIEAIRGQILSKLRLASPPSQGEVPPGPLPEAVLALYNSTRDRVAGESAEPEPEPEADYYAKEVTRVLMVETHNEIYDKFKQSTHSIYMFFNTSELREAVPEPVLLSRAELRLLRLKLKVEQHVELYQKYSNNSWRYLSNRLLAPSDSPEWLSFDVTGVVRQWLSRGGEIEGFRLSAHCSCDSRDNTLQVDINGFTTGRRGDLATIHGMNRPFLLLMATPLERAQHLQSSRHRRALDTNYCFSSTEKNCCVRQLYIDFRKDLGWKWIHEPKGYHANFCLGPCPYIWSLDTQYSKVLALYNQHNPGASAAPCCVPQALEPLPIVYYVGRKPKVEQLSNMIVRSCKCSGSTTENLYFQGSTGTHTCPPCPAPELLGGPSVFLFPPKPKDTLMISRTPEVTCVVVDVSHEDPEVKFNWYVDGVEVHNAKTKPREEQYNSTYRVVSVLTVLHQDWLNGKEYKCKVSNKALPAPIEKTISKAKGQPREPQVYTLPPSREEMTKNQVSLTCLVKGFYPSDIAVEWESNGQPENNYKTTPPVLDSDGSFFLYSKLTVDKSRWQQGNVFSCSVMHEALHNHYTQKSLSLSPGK
- ASSAY PROCEDURE: BLI off-rate screen
RECORDED METRIC: Fold change (fold)
The answer is to be given in fold; state only the numeric part.

VL I29Y (43BIT) (Fab, V domains shown) VH: EVQLVQSGAEVKKPGASVKVSCKASGYTFTSYWMHWVRQAPGQGLEWMGRIDPQSGGIKYAQKFQGRATLTVDTSTSTAYMELSRLRSDDTAVYYCARWDYGGYFDVWGQGTLVTVSS VL: DIQMTQSPSSLSASVGDRVTITCRASQDYTNYLNWYQQKPGKAVKLLIYYTSRLHSGVPSRFSGSGSGTDYTLTISSLQPEDFATYFCQQGDTLPWTFGQGTKLEIKR	1.6

Fold change lookup needed for VH H35Y (73BIT) (Fab, V domains shown) VH: EVQLVQSGAEVKKPGASVKVSCKASGYTFTSYWMYWVRQAPGQGLEWMGRIDPQSGGIKYAQKFQGRATLTVDTSTSTAYMELSRLRSDDTAVYYCARWDYGGYFDVWGQGTLVTVSS VL: DIQMTQSPSSLSASVGDRVTITCRASQDITNYLNWYQQKPGKAVKLLIYYTSRLHSGVPSRFSGSGSGTDYTLTISSLQPEDFATYFCQQGDTLPWTFGQGTKLEIKR , thanks.
0.9
